Measured MIC50, listed per entry for reference.
Test system: Enterococcus
Test: Antibacterial activity against 10^4 to 10^5 CFU vancomycin-resistant Enterococcus after 18 hrs by CLSI 2-fold agar dilution method
Format: functional
Property measured: MIC50

structure_notation=CC(=O)NC[C@H]1CN(c2ccc(N3CCOCC3)c(F)c2)C(=O)O1 endpoint_result="2 µg/mL"
structure_notation=CN[C@H](CC(C)C)C(=O)N[C@H]1C(=O)N[C@@H](CC(N)=O)C(=O)N[C@H]2C(=O)N[C@H]3C(=O)N[C@H](C(=O)N[C@H](C(=O)O)c4cc(O)cc(O)c4-c4cc3ccc4O)[C@H](O)c3ccc(c(Cl)c3)Oc3cc2cc(c3O[C@@H]2O[C@H](CO)[C@@H](O)[C@H](O)[C@H]2O[C@H]2C[C@](C)(N)[C@H](O)[C@H](C)O2)Oc2ccc(cc2Cl)[C@H]1O endpoint_result="> 64 µg/mL"
structure_notation=CN1CCN(c2ccc(N3C[C@H](CO)OC3=O)cc2F)C=N1 endpoint_result="1 µg/mL"

====

Tested on: Staphylococcus
Assay: Antibacterial activity against 10^4 to 10^5 CFU methicillin-resistant coagulase-negative Staphylococcus after 18 hrs by CLSI 2-fold agar dilution method
Type: functional
Measured MIC90, listed per entry for reference.
Property measured: MIC90 (µg/mL)

compound="CC(=O)NC[C@H]1CN(c2ccc(N3CCOCC3)c(F)c2)C(=O)O1 [LINEZOLID]" result_comparator== endpoint_result=1
compound="Cc1onc(-c2ccccc2)c1C(=O)N[C@@H]1C(=O)N2[C@@H]1SC(C)(C)[C@@H]2C(=O)O [OXACILLIN]" result_comparator=> endpoint_result=64
compound="CO/N=C1\\CN(c2nc3c(cc2F)c(=O)c(C(=O)O)cn3C2CC2)CC1CN (stereo not drawn) [GEMIFLOXACIN]" result_comparator== endpoint_result=1

====

Measured MIC90, listed per entry for reference.
Test system: Enterococcus faecalis
Assay: Antibacterial activity against 10^4 to 10^5 CFU Enterococcus faecalis after 18 hrs by CLSI 2-fold agar dilution method
Assay type: functional
Property measured: MIC90 (µg/mL)

molecule="CC(=O)NC[C@H]1CN(c2ccc(N3CCOCC3)c(F)c2)C(=O)O1 [LINEZOLID]" system_under_test="Enterococcus faecalis" unit_abbrev=µg/mL result_comparator== endpoint_result=2
molecule="CN1CCN(c2ccc(N3C[C@H](CO)OC3=O)cc2F)C=N1 [DELPAZOLID]" system_under_test="Enterococcus faecalis" unit_abbrev=µg/mL result_comparator== endpoint_result=2
molecule="CN[C@H](CC(C)C)C(=O)N[C@H]1C(=O)N[C@@H](CC(N)=O)C(=O)N[C@H]2C(=O)N[C@H]3C(=O)N[C@H](C(=O)N[C@H](C(=O)O)c4cc(O)cc(O)c4-c4cc3ccc4O)[C@H](O)c3ccc(c(Cl)c3)Oc3cc2cc(c3O[C@@H]2O[C@H](CO)[C@@H](O)[C@H](O)[C@H]2O[C@H]2C[C@](C)(N)[C@H](O)[C@H](C)O2)Oc2ccc(cc2Cl)[C@H]1O [VANCOMYCIN]" system_under_test="Enterococcus faecalis" unit_abbrev=µg/mL result_comparator== endpoint_result=4
molecule="Cc1onc(-c2ccccc2)c1C(=O)N[C@@H]1C(=O)N2[C@@H]1SC(C)(C)[C@@H]2C(=O)O [OXACILLIN]" system_under_test="Enterococcus faecalis" unit_abbrev=µg/mL result_comparator=> endpoint_result=64
molecule="CC[C@H]1OC(=O)[C@H](C)[C@@H](O[C@H]2C[C@@](C)(OC)[C@@H](O)[C@H](C)O2)[C@H](C)[C@@H](O[C@@H]2O[C@H](C)C[C@H](N(C)C)[C@H]2O)[C@](C)(O)C[C@@H](C)C(=O)[C@H](C)[C@@H](O)[C@]1(C)O [ERYTHROMYCIN]" system_under_test="Enterococcus faecalis" unit_abbrev=µg/mL result_comparator=> endpoint_result=64
molecule="CO/N=C1\\CN(c2nc3c(cc2F)c(=O)c(C(=O)O)cn3C2CC2)CC1CN (stereo unspecified) [GEMIFLOXACIN]" system_under_test="Enterococcus faecalis" unit_abbrev=µg/mL result_comparator== endpoint_result=4

====

Test system: Enterococcus faecium
Assay: Antibacterial activity against 10^4 to 10^5 CFU Enterococcus faecium after 18 hrs by CLSI 2-fold agar dilution method
Assay type: functional
Measured MIC50, listed per entry for reference.
Property measured: MIC50 (µg/mL)

compound="CN[C@H](CC(C)C)C(=O)N[C@H]1C(=O)N[C@@H](CC(N)=O)C(=O)N[C@H]2C(=O)N[C@H]3C(=O)N[C@H](C(=O)N[C@H](C(=O)O)c4cc(O)cc(O)c4-c4cc3ccc4O)[C@H](O)c3ccc(c(Cl)c3)Oc3cc2cc(c3O[C@@H]2O[C@H](CO)[C@@H](O)[C@H](O)[C@H]2O[C@H]2C[C@](C)(N)[C@H](O)[C@H](C)O2)Oc2ccc(cc2Cl)[C@H]1O [VANCOMYCIN]" system_under_test="Enterococcus faecium" result_comparator== endpoint_result=1
compound="CC[C@H]1OC(=O)[C@H](C)[C@@H](O[C@H]2C[C@@](C)(OC)[C@@H](O)[C@H](C)O2)[C@H](C)[C@@H](O[C@@H]2O[C@H](C)C[C@H](N(C)C)[C@H]2O)[C@](C)(O)C[C@@H](C)C(=O)[C@H](C)[C@@H](O)[C@]1(C)O [ERYTHROMYCIN]" system_under_test="Enterococcus faecium" result_comparator=> endpoint_result=64
compound="CC(=O)NC[C@H]1CN(c2ccc(N3CCOCC3)c(F)c2)C(=O)O1 [LINEZOLID]" system_under_test="Enterococcus faecium" result_comparator== endpoint_result=2
compound="Cc1onc(-c2ccccc2)c1C(=O)N[C@@H]1C(=O)N2[C@@H]1SC(C)(C)[C@@H]2C(=O)O [OXACILLIN]" system_under_test="Enterococcus faecium" result_comparator=> endpoint_result=64
compound="CN1CCN(c2ccc(N3C[C@H](CO)OC3=O)cc2F)C=N1 [DELPAZOLID]" system_under_test="Enterococcus faecium" result_comparator== endpoint_result=2
compound="CO/N=C1\\CN(c2nc3c(cc2F)c(=O)c(C(=O)O)cn3C2CC2)CC1CN (stereo unspecified) [GEMIFLOXACIN]" system_under_test="Enterococcus faecium" result_comparator== endpoint_result=2

====

Test system: Staphylococcus aureus
Assay: Antibacterial activity against 10^4 to 10^5 CFU methicillin-susceptible Staphylococcus aureus after 18 hrs by CLSI 2-fold agar dilution method
Type: functional
Property measured: MIC90 (µg/mL)

molecule=CC(=O)NC[C@H]1CN(c2ccc(N3CCOCC3)c(F)c2)C(=O)O1 system_under_test="Staphylococcus aureus" result_comparator== endpoint_result=2
molecule=CN[C@H](CC(C)C)C(=O)N[C@H]1C(=O)N[C@@H](CC(N)=O)C(=O)N[C@H]2C(=O)N[C@H]3C(=O)N[C@H](C(=O)N[C@H](C(=O)O)c4cc(O)cc(O)c4-c4cc3ccc4O)[C@H](O)c3ccc(c(Cl)c3)Oc3cc2cc(c3O[C@@H]2O[C@H](CO)[C@@H](O)[C@H](O)[C@H]2O[C@H]2C[C@](C)(N)[C@H](O)[C@H](C)O2)Oc2ccc(cc2Cl)[C@H]1O system_under_test="Staphylococcus aureus" result_comparator== endpoint_result=1
molecule=CN1CCN(c2ccc(N3C[C@H](CO)OC3=O)cc2F)C=N1 system_under_test="Staphylococcus aureus" result_comparator== endpoint_result=2
molecule=CC[C@H]1OC(=O)[C@H](C)[C@@H](O[C@H]2C[C@@](C)(OC)[C@@H](O)[C@H](C)O2)[C@H](C)[C@@H](O[C@@H]2O[C@H](C)C[C@H](N(C)C)[C@H]2O)[C@](C)(O)C[C@@H](C)C(=O)[C@H](C)[C@@H](O)[C@]1(C)O system_under_test="Staphylococcus aureus" result_comparator=> endpoint_result=64
molecule="CO/N=C1\\CN(c2nc3c(cc2F)c(=O)c(C(=O)O)cn3C2CC2)CC1CN (stereo unspecified)" system_under_test="Staphylococcus aureus" result_comparator== endpoint_result=0.06
molecule=Cc1onc(-c2ccccc2)c1C(=O)N[C@@H]1C(=O)N2[C@@H]1SC(C)(C)[C@@H]2C(=O)O system_under_test="Staphylococcus aureus" result_comparator== endpoint_result=0.5

====

Test system: Streptococcus pneumoniae
Assay: Antibacterial activity against 10^4 to 10^5 CFU Streptococcus pneumoniae after 18 hrs by CLSI 2-fold agar dilution method
Type: functional
Property measured: MIC90 (µg/mL)

compound="Cc1onc(-c2ccccc2)c1C(=O)N[C@@H]1C(=O)N2[C@@H]1SC(C)(C)[C@@H]2C(=O)O [OXACILLIN]" result_comparator== endpoint_result=16
compound="CN1CCN(c2ccc(N3C[C@H](CO)OC3=O)cc2F)C=N1 [DELPAZOLID]" result_comparator== endpoint_result=1
compound="CC[C@H]1OC(=O)[C@H](C)[C@@H](O[C@H]2C[C@@](C)(OC)[C@@H](O)[C@H](C)O2)[C@H](C)[C@@H](O[C@@H]2O[C@H](C)C[C@H](N(C)C)[C@H]2O)[C@](C)(O)C[C@@H](C)C(=O)[C@H](C)[C@@H](O)[C@]1(C)O [ERYTHROMYCIN]" result_comparator=> endpoint_result=64
compound="CO/N=C1\\CN(c2nc3c(cc2F)c(=O)c(C(=O)O)cn3C2CC2)CC1CN (stereo unspecified) [GEMIFLOXACIN]" result_comparator== endpoint_result=0.06
compound="CC(=O)NC[C@H]1CN(c2ccc(N3CCOCC3)c(F)c2)C(=O)O1 [LINEZOLID]" result_comparator== endpoint_result=1
compound="CN[C@H](CC(C)C)C(=O)N[C@H]1C(=O)N[C@@H](CC(N)=O)C(=O)N[C@H]2C(=O)N[C@H]3C(=O)N[C@H](C(=O)N[C@H](C(=O)O)c4cc(O)cc(O)c4-c4cc3ccc4O)[C@H](O)c3ccc(c(Cl)c3)Oc3cc2cc(c3O[C@@H]2O[C@H](CO)[C@@H](O)[C@H](O)[C@H]2O[C@H]2C[C@](C)(N)[C@H](O)[C@H](C)O2)Oc2ccc(cc2Cl)[C@H]1O [VANCOMYCIN]" result_comparator== endpoint_result=1
